Measured pKi, listed per entry.
- TESTED_TARGET: isolated recombinant JAK1 kinase domain (Homo sapiens, UniProt P23458)
- Construct: The activity of the isolated recombinant JAK1 and JAK2 kinase domain was measured
- Sequence (P23458 875-1153): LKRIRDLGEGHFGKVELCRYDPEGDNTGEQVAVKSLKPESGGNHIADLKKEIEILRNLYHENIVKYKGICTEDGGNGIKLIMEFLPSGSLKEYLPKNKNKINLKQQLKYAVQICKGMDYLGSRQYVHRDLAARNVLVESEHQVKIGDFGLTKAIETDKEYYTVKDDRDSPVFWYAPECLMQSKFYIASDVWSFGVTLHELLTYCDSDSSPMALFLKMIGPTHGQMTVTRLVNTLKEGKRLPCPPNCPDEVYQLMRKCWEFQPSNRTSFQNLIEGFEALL
- METHOD_NOTES: JAK1 enzyme assay (Caliper LabChip, peptide phosphorylation)
- Type: biochemical
- CONDITION_INFO: 1.5 nM JAK1, 25 μM ATP, 22° C., 30 minutes; Morrison tight binding model
- Experimental: JAK Enzyme Assays were Carried Out as Follows: The activity of the isolated recombinant JAK1 and JAK2 kinase domain was measured by monitoring phosphorylation of a peptide derived from JAK3 (Val-Ala-Leu-Val-Asp-Gly-Tyr-Phe-Arg-Leu-Thr-Thr, fluorescently labeled on the N-terminus with 5-carboxyfluorescein) using the Caliper LabChip® technology (Caliper Life Sciences, Hopkinton, Mass.). […]
# pKi: negative log10 of molar concentration; output just the value

Request: Suppose we examine the molecule N#CC1(CNC2CCN(C(=O)Cn3cc(NC(=O)c4cnc5cccnn45)c(-c4cc(Cl)ccc4OC(F)F)n3)CC2)CC1 [Example 5] ; what pKi value has been reported?
Result: 9.25

Request: Also check O=C(Nc1c[nH]nc1-c1cc(Cl)ccc1OC(F)F)c1cnc2ccc(Cl)nn12 [Example 2]
Result: 8.82

Request: Same for O=C(Nc1c[nH]nc1-c1cc(Cl)ccc1OC(F)F)c1cnc2cccnn12 [Example 6]
Result: 9.74

Below: the item to evaluate.
Request: What value of measured pKi is listed for NCCn1cc(NC(=O)c2cnc3cccnn23)c(-c2cc(Cl)ccc2OC(F)F)n1 [Example 7] ?
Result: 9.14
